Reported IC50 on Receptor-type tyrosine-protein kinase FLT3 (Homo sapiens, UniProt P36888) for assorted molecules, compiled from publications.

These solved cases illustrate the format of a correct answer.
CCc1nc2c(N)ncc(-c3cnn(-c4cnc(C(C)(C)O)nc4)c3)c2nc1NC1CCOCC1 = ≤ 0.01 µM
Clc1cc(Cl)cc(-c2n[nH]c3c2Cc2sccc2-3)c1 = 0.1 to 0.499 µM
CCc1nc2c(N)ncc(-c3cnn(C4CCN(C(=O)NC(C)C)CC4)c3)c2nc1N[C@@H]1CC[C@H](O)C1 = ≤ 0.01 µM

For every record below, what is its IC50?
1. COC[C@H](C)Nc1ncc2c(-c3cncc(C(=O)N4CCCC4)c3)cc([C@H]3CC[C@H](O)CC3)n2n1
2. COC[C@H](C)Nc1ncc2c(-c3ccnc(C(C)(C)O)c3)cc([C@H]3CC[C@H](O)CC3)n2n1
3. CN1CCN(c2ccc3[nH]c(-c4cc(-c5ccc(NC(=O)Nc6cccc(C(F)(F)F)c6)cc5)[nH]n4)nc3c2)CC1
4. CN(C)c1ccc(-c2cc3nccnc3c(OC[C@@H]3CN(C(=O)C(F)F)CCO3)n2)cc1
5. C1=C/COCc2cc(ccc2N2CCOCC2)Nc2nccc(n2)-c2cccc(c2)COC/1
6. COC[C@H](C)Nc1ncc2c(-c3cnn(CCC#N)c3)cc([C@H]3CC[C@H](O)CC3)n2n1

1: 1 to 10 µM; 2: 0.1 to 1 µM; 3: < 0.05 µM; 4: > 3 µM; 5: ≤ 1 µM; 6: 0.1 to 1 µM

Count: 2. Required value per item: IC50.
1. Nc1ccc(Nc2ccc(-c3n[nH]c4c3Cc3sccc3-4)cc2)cc1
2. CCOc1ncc([C@H]2CC[C@H](O)CC2)c2nc(N[C@@H](C)COC)ncc12

["0.1 to 0.499 µM", "1 to 10 µM"]
